Target: OCTN2 (organic cation/carnitine transporter 2) (Rattus norvegicus, UniProt O70594)
Sequence (O70594 whole entry): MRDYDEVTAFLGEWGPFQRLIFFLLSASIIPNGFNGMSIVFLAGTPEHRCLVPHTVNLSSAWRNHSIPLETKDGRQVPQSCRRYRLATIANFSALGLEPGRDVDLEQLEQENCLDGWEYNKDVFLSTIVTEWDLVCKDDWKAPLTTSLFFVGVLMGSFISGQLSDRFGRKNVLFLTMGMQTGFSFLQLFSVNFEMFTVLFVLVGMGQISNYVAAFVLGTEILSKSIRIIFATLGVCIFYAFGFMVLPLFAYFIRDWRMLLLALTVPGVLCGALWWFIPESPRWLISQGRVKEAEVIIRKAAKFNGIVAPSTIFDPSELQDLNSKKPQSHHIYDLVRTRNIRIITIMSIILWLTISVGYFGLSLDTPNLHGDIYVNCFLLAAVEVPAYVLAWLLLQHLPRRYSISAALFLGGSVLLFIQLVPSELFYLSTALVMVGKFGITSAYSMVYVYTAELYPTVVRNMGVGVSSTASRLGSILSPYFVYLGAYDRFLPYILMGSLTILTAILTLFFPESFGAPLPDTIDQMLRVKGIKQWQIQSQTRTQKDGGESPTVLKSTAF
Experiment: in vitro
Details: human, HRPE cells expressing OCTN2, probe carnitine (0.025 uM)
Description: TP_TRANSPORTER: inhibition of Carnitine uptake (Carnitine: 0.025 uM, TEA: 2000 uM) in OCTN2-expressing HRPE cells
Property Name: activity at 2000 µM (%)

INSERT INTO assay_data (compound, property_name, experimental_result) VALUES
  ('CC[N+](CC)(CC)CC [TETRYLAMMONIUM]', 'activity at 2000 µM', 4);

* * *

Biological target: OCTN2 (organic cation/carnitine transporter 2) (Rattus norvegicus)
Experiment: TP_TRANSPORTER: inhibition of Carnitine uptake (Carnitine: 0.025 uM, Acetyl-L-carnitine: 500 uM) in OCTN2-expressing HRPE cells
Format: functional, cell-based
Parameters: scale not given: the % may be the effect or the level left
Settings: human, HRPE cells expressing OCTN2, probe carnitine (0.025 uM); read-out: Activity
Property Name: activity at 500 µM (%)

INSERT INTO assay_data (structure_as_smiles, experimental_result) VALUES
  ('CC(=O)O[C@H](CC(=O)[O-])C[N+](C)(C)C', 1);

* * *

Molecular target: OCTN2 (organic cation/carnitine transporter 2) (Rattus norvegicus)
Assay: in vitro
Conditions: human, HRPE cells expressing OCTN2, probe carnitine (0.025 uM)
Description: TP_TRANSPORTER: inhibition of Carnitine uptake (Carnitine: 0.025 uM, Choline: 2000 uM) in OCTN2-expressing HRPE cells
Property Name: activity at 2000 µM (%)

INSERT INTO results (compound, property_name, experimental_result) VALUES
  ('C[N+](C)(C)CCO [CHOLINE]', 'activity at 2000 µM', 24);

* * *

Target: OCTN2 (organic cation/carnitine transporter 2) (Homo sapiens, UniProt O76082)
Test: in vitro
Details: HRPE cells expressing OCTN2, probe carnitine (0.025 uM)
Description: TP_TRANSPORTER: inhibition of Carnitine uptake (Carnitine: 0.025 uM, Choline: 2000 uM) in OCTN2-expressing HRPE cells
Property Name: activity at 2000 µM (%)

INSERT INTO results (structure_as_smiles, experimental_result) VALUES
  ('C[N+](C)(C)CCO', 82);

* * *

Molecular target: OCTN2 (organic cation/carnitine transporter 2) (Homo sapiens, UniProt O76082)
Sequence (O76082 whole entry): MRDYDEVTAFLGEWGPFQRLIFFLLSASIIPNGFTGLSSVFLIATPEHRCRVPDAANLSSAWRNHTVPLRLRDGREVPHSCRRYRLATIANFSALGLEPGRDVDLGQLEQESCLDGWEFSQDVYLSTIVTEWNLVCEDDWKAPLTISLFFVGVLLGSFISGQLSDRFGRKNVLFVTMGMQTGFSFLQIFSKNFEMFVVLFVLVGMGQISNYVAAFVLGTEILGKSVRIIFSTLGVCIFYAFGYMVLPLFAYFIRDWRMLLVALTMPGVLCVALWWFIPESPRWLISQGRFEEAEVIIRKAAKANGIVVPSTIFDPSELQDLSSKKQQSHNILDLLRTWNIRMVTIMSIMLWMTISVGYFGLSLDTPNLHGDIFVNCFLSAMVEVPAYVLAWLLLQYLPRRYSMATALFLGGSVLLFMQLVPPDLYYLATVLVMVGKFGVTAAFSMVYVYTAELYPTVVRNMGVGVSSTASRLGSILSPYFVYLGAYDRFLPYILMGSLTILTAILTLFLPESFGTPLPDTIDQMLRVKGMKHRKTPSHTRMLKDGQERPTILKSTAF
Experiment: TP_TRANSPORTER: inhibition of Carnitine uptake (Carnitine: 0.025 uM, MPTP: 2000 uM) in OCTN2-expressing HRPE cells
Type: functional, cell-based
Set-up: scale not given: the % may be the effect or the level left
Conditions: HRPE cells expressing OCTN2, probe carnitine (0.025 uM), read-out: Activity
Property Name: activity at 2000 µM (%)

INSERT INTO assay_data (structure_as_smiles, experimental_result) VALUES
  ('CN1CC=C(c2ccccc2)CC1', 47);
